// values below are reported cytotoxicity at 72 h, 50 ug/ml
Assay: Cytotoxicity against HEK293T cells at 50 ug/ml after 72 hrs by MTT assay
Format: cell-based, HEK-293T
Settings: human, read-out: INH
REPORTED ENDPOINT: cytotoxicity at 72 h, 50 ug/ml

OCCCCn1cc(-c2ccc3oc4ccccc4c3c2)nn1    21.9%
c1ccc(Cn2cc(-c3ccc4oc5ccccc5c4c3)nn2)cc1    36.1%
Brc1ccc(Cn2cc(-c3ccc4oc5ccccc5c4c3)nn2)cc1    27.8%
COC(=O)c1ccc(Cn2cc(-c3ccc4oc5ccccc5c4c3)nn2)cc1    58.1%
COc1cccc(Cn2cc(-c3ccc4oc5ccccc5c4c3)nn2)c1    62.1%
CC(c1ccc2oc3ccccc3c2c1)n1cc(-c2ccc3oc4ccccc4c3c2)nn1 (centres undefined)    52.6%
CCOC(=O)Cn1cc(-c2ccc3oc4ccccc4c3c2)nn1    38.8%
O=[N+]([O-])c1ccc(Cn2cc(-c3ccc4oc5ccccc5c4c3)nn2)cc1    46.3%
Brc1cccc(Cn2cc(-c3ccc4oc5ccccc5c4c3)nn2)c1    12%
COc1ccc(Cn2cc(-c3ccc4oc5ccccc5c4c3)nn2)cc1    52.7%
COc1ccc(C(C)n2cc(-c3ccc4oc5ccccc5c4c3)nn2)cc1 (centres undefined)    18.9%
Cc1ccc(C(C)n2cc(-c3ccc4oc5ccccc5c4c3)nn2)cc1 (centres undefined)    43.1%
CC(c1ccc([N+](=O)[O-])cc1)n1cc(-c2ccc3oc4ccccc4c3c2)nn1 (centres undefined)    38.9%
CC(c1ccc2sc3ccccc3c2c1)n1cc(-c2ccc3oc4ccccc4c3c2)nn1 (centres undefined)    61.1%

====

Test: Selectivity index, ratio of IC50 for HEK293T cells to MIC for Mycobacterium tuberculosis H37Rv ATCC 27294
Format: toxicity, cell-based, HEK-293T
Conditions: human, read-out: Selectivity Index
REPORTED ENDPOINT: selectivity ratio

COC(=O)c1ccc(Cn2cc(-c3ccc4oc5ccccc5c4c3)nn2)cc1    1
OCCCCn1cc(-c2ccc3oc4ccccc4c3c2)nn1    1
c1ccc(Cn2cc(-c3ccc4oc5ccccc5c4c3)nn2)cc1    1
CC(c1ccc([N+](=O)[O-])cc1)n1cc(-c2ccc3oc4ccccc4c3c2)nn1 (stereo unspecified)    2

====

Assay: Selectivity index, ratio of IC50 for HEK293T cells to MIC for Mycobacterium tuberculosis H37Rv ATCC 27294
Type: toxicity, cell-based, HEK-293T
Settings: human, read-out: Selectivity Index
// values below are reported selectivity ratio
REPORTED ENDPOINT: selectivity ratio

COc1cccc(Cn2cc(-c3ccc4oc5ccccc5c4c3)nn2)c1    25
CC(c1ccc2sc3ccccc3c2c1)n1cc(-c2ccc3oc4ccccc4c3c2)nn1 (stereo not drawn)    1
CC(c1ccc2oc3ccccc3c2c1)n1cc(-c2ccc3oc4ccccc4c3c2)nn1 (stereo not drawn)    1
COc1ccc(Cn2cc(-c3ccc4oc5ccccc5c4c3)nn2)cc1    16
O=[N+]([O-])c1ccc(Cn2cc(-c3ccc4oc5ccccc5c4c3)nn2)cc1    1
Cc1ccc(C(C)n2cc(-c3ccc4oc5ccccc5c4c3)nn2)cc1 (stereo not drawn)    16
